Data provenance: PubChem BioAssay (NCI)

- System: HCT-116 colon
- method.description: NCI tumour cell line growth inhibition, 48 h
endpoint.name: TGI

CO/N=C/c1c(-c2ccc(Cl)cc2)c(/C=N/OC)n2c1sc1ccccc12 : > 100 µM
O=c1[nH][nH]c(=S)c(=O)[nH]1 : > 100 µM
COC1(C)Cc2c(c(C)c(O)c3c2C(=O)C=C(Cl)C3=O)O1 (configuration not stated) : > 78 µM
COc1ccc2c(c1)N(CCC1CCCCN1C)c1ccccc1S2 (configuration not stated) : 27.2 µM
CCOC(=O)C1C(=O)CC(C)(O)C(C(=O)OCC)C1c1ccc(OC)cc1 (configuration not stated) : > 100 µM
C[C@H]1[C@H](C)CC[C@]2(C(=O)O)CC[C@]3(C)C(=CC[C@@H]4[C@@]5(C)CC[C@H](OC(=O)/C=C\c6ccc(O)cc6)C(C)(C)[C@@H]5CC[C@]43C)[C@H]12 : 3.98 µM
COc1ccc2oc(-c3ccc(Cl)cc3)c(N3CCN(C)CC3)c2c1 : 4.59 µM
O=C(/C=C/c1ccc2c(c1)OCO2)c1ccccc(=O)c1O : > 100 µM
COc1ccc(-c2oncc2-c2cc(OC)c3c(c2)OCO3)cc1 : > 58.3 µM
Cn1c(-c2ccccc2)c/c(=N\NS(C)(=O)=O)c2cc(S(=O)(=O)O)ccc21 : > 100 µM
Nc1nc(Cl)nc2c1ncn2C1CCC(CO)O1 (configuration not stated) : > 100 µM
CCOCC[P+](c1ccccc1)(c1ccccc1)c1ccccc1 : > 100 µM
CCOC(=O)c1nc2ccc(C(F)(F)F)cc2nc1Nc1ccc(OC)c(OC)c1 : > 100 µM
CCOC(=O)c1cc(Cl)ccc1OC(N)=O : > 100 µM
C=C1C(=O)O[C@H]2[C@H]3O[C@@H](C[C@@H]12)[C@](C)(O)CCCC(C)=CCC[C@H]3C : 31.1 µM
O=C1c2cccnc2-c2nccc3ccnc1c23 : 0.0784 µM
Cc1cc(NC(=O)C(=O)Cc2nc3ccccc3s2)ccc1Cl : > 100 µM
Clc1ccc(N=Cc2cc3cc(Br)ccc3nc2Cl)cc1 : > 50 µM
CCCC[Si](CCCC)(CCCC)O[C@@H](/C=C/C(=O)OCC)[C@H](Cc1ccccc1)O[Si](CCCC)(CCCC)CCCC : > 100 µM
CN(C)C(=S)SCc1ccccc1 : > 100 µM
Nc1nn(C(=O)Nc2ccc(Cc3ccccc3)cc2)c2ccccc12 : > 100 µM
Cc1cc2nc3c(C#N)c(-c4ccccc4)cc(Nc4cccc(C(F)(F)F)c4)n3c2cc1C : 10.8 µM
COc1ccc(OC)c(/C=C/c2cnnc3ccccc23)c1 : > 10 µM
CCCCC/C(=N\c1nc[nH]c1C(N)=O)OCC : > 100 µM
O=S(=O)(c1ccccc1)C1CN(Cc2ccccc2)CCN(Cc2ccccc2)C1 : > 100 µM
CNC(=S)N/N=C(/C)CCC/C(C)=N/NC(=S)NC : > 100 µM
C#CCOc1c(OC)cc(C(=O)/C(C)=C/c2cccc(N=[N+]=[N-])c2)cc1OC : 10.8 µM
CN(C)N1C(=O)CC2(CCN(CCCC(=O)c3ccc(F)cc3)CC2)C1=O : > 100 µM
C/C(=C\c1ccc2c(c1)OCO2)[N+](=O)[O-] : > 100 µM
COc1cc2c3c(n(CCCN4CCOCC4)c(=O)c2cc1OC)-c1cc2c(cc1C3=O)OCO2 : 17.4 µM
O=C1C=CC(=O)N1CCCCCCCCCCN1C(=O)C=CC1=O : 12.9 µM
CCC1=C[C@H]2CN(CCc3c([nH]c4ccccc34)[C@@](C(=O)OC)(c3cc4c(cc3OC)N(C)[C@H]3[C@@](O)(C(=O)OC)[C@H](OC(C)=O)[C@]5(CC)[C@@H]6C[C@@H]6CN6CC[C@]43[C@@H]65)C2)C1 : 2.61 µM
O=C(CCc1cc(-c2ccco2)n(-c2ccc([N+](=O)[O-])cc2[N+](=O)[O-])n1)Nc1ccccc1 : > 100 µM
C/C(CN1C(=O)c2ccccc2C1=O)=N\NS(C)(=O)=O : > 100 µM
c1ccc(-c2cc(-c3cc(-c4ccccc4)no3)on2)cc1 : > 100 µM
Cc1ccc2nc(Cl)c(/C=N/N3C(=O)/C(=C/Cc4ccco4)N=C3c3ccccc3)cc2c1 : 39.3 µM
CC1(C)OC([C@H](O)CO)C([C@H]2NCCS2)O1 (some centres not stated) : > 100 µM
